IC50 values for the compounds below.
subject of test: Aurora kinase A (Homo sapiens, UniProt O14965)
Sequence (O14965 whole entry): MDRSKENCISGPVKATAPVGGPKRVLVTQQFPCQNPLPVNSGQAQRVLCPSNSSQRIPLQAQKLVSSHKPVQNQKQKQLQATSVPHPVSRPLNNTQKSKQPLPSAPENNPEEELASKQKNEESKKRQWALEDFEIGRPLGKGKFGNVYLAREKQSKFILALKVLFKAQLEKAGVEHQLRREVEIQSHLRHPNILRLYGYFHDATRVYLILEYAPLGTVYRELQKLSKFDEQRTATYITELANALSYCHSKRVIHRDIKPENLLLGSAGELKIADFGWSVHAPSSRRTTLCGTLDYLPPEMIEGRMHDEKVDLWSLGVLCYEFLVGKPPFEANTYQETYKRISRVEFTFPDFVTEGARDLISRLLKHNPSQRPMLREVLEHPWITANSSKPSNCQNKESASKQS
run description: Inhibition of recombinant Aurora A

compound	unit annotation	IC50
Cc1cc(O)cc2oc(=O)c3c(O)cc(OS(=O)(=O)O)cc3c12	×10⁻⁷ g/ml	3.9
Cc1cc(O)cc2oc(=O)c3c(O)cc(O)cc3c12 [ALTERNARIOL]	×10⁻⁷ g/ml	7.3
